molecular target: human C5 protein (human, UniProt P01031 19-673; P01031 678-1676); experiment: cell-based or functional assay
Starred links: 1 amine or outer side, 2 acyl side, 3 side chain; linkers in the order of their positions; H or OH if unused. Positions of bridges follow the written chain, without caps; N, C: chain ends. Non-standard residues stand in square brackets, D forms with d. Primed or numbered codes have the meaning given here. No end group written: not given here. mXylyl(3) = bridging moiety between the two residues given in brackets; mXylyl″ = bridging moiety between the two marked residues; Trp(7-aza) = N[C@@H](Cc1c[nH]c2ncccc12)C(=O)O; mXylyl(4) = bridging moiety between residues; PEG2000 = polyethylene glycol, 2000 Da; mXylylene = c1cc(C[*:1])cc(C[*:2])c1; Phg(2-OMe)′ = not defined here; Phg = N[C@H](C(=O)O)c1ccccc1; Tle = CC(C)(C)[C@H](N)C(=O)O; NMeS = CN[C@@H](CO)C(=O)O; NMeA = CN[C@@H](C)C(=O)O; Nva = CCC[C@H](N)C(=O)O
# label = met if Avg. IC50, human hemolysis assay >= 300 nM else not met

1. Ac-[Nva]C[Phg(2-OMe)′]T[Trp(7-aza)]EY[NMeS]HC[Nva]-NH2 (linker 2-10 via mXylyl(3)) [R3087] ... met
2. [Nva]CCN[Tle][Phg]C[Tle][NMeS]C[Tle]-NH2 (linker (positions not given here) via mXylylene; also: mXylyl bicyclo: linked cysteines not given here) [R3053] ... met
3. Ac-C[Phg]T[Trp(7-aza)]EY[NMeS]HC[Nva]P[Nva]-NH2 (linker 1-9 via mXylyl″) [R3014] ... met
4. Ac-C[Tle]ERFCD[Tle]YWEF-NH2 (linker 1-6 via mXylyl(3)) [R3139] ... not met
5. Ac-CAERFCD[Tle]YWEYP[Phg][Nva]-NH2 (linker 1-6 via mXylyl(3)) [R3148] ... not met
6. Ac-[Nva]CYNN[Tle]ECEYP[Phg][Tle]-NH2 (cysteine pairing not given here) [R3128] ... met
7. Ac-[Nva]C[Phg]T[dW]EY[NMeS]HC[Nva]-NH2 (linker 2-10 via mXylyl(3)) [R3132] ... met
8. PEG2000-[Nva][Nva]YEN[Tle]Y[Trp(7-aza)]EYP[Phg][Nva]-NH2 [R3078] ... met
9. Ac-[Nva]C[Phg]T[Trp(7-aza)]EY[NMeA]HC[Nva]-NH2 (linker 2-10 via mXylyl(4)) [R3037] ... not met

Data origin: patent US20210283212A1
